Assay: gradient 5% acetonitrile 3 min, to 50% in 2 min, to 85% in 15 min, held 3 min, 100 µL/min
Details: column: Zorbax Extend-C18 2.1 x 50 mm; eluents: water / acetonitrile, 0.1% formic acid
Entry flag: Satisfied if RP-LC retention time reaches 800 s; Not satisfied if it does not.

Inquiry: Could you tell me if the measured RP-LC retention time of CCOC(=O)C1CCCN(Cc2nc3nc(C)cc(N4CCC(C)CC4)n3n2)C1 (stereo not given) reaches 800 s or more?
Reply text: Not satisfied

Inquiry: Is it the case that CCCC(=O)Nc1nc2ccc(CCC(=O)Nc3ccc(CC)cc3)cc2s1 has RP-LC retention time reaching or exceeding 800 s?
Reply text: Satisfied

Inquiry: Is the recorded value of RP-LC retention time equal to or greater than 800 s for this molecule? Cc1cccc(-n2cc(C(=O)OCc3cc(=O)n4ccccc4n3)c3ccccc3c2=O)c1
Reply text: Satisfied

====

Experiment: gradient 5% acetonitrile 3 min, to 50% in 2 min, to 85% in 15 min, held 3 min, 100 µL/min
Details: column: Zorbax Extend-C18 2.1 x 50 mm; eluents: water / acetonitrile, 0.1% formic acid
Form field: RP-LC retention time (one value per entry).

Would you please look over these solved cases?
CC(=O)NCc1ccc(-c2noc(Cc3ccc(Br)cc3)n2)s1 | 890 s
O=C(NCC1CCOCC1)c1c[nH]c2ccccc12 | 636 s
Cc1cccc(CN2CCN(CC(=O)N3CCN(Cc4ccccc4)CC3)C(=O)C2=O)c1 | 608 s

Inquiry: Provide only the value of recorded RP-LC retention time for CN(Cc1ccccc1)C(=O)Cn1c(=O)c2cnc(-c3ccccc3)nc2n(C)c1=O
Reply text: 1020 s

Inquiry: Determine its reported RP-LC retention time: CC(=O)Nc1nc(-c2ccc(F)c(F)c2)cs1
Reply text: 766 s

Inquiry: Supply measured RP-LC retention time of O=C(CN1CCC(c2nc(-c3cccs3)no2)CC1)NCc1ccc(F)cc1 in your reply.
Reply text: 684 s

Inquiry: Give the value of RP-LC retention time reported for the following: COc1ccc(-c2noc(CCCC(=O)Nc3nc(-c4ccccc4)cs3)n2)cc1
Reply text: 1060 s

Inquiry: Return reported RP-LC retention time. Input compound: CCOC(=O)C1C(=O)C=C(c2cccs2)CC1c1ccc(OCC)cc1 (stereo not given)
Reply text: 1060 s

Inquiry: Give the reported RP-LC retention time for this compound. Cc1ccc(NC(=O)Nc2cnn(-c3ncncc3N3CCOCC3)c2)cc1C
Reply text: 674 s

Inquiry: Tell me measured RP-LC retention time for CCOCCCNC(=O)C1CCN(c2cc(Sc3cc(C)ccc3C)ncn2)CC1 please.
Reply text: 775 s

====

Assay: gradient 5% acetonitrile 3 min, to 50% in 2 min, to 85% in 15 min, held 3 min, 100 µL/min
Conditions: column: Zorbax Extend-C18 2.1 x 50 mm; eluents: water / acetonitrile, 0.1% formic acid
We begin with a simple list: items and their reported RP-LC retention time.
Show the value, then the unit it is measured in.

Cc1ccc(S(=O)(=O)N2CCCN(C)c3ccccc32)cc1F | 1100 s
O=C(O)c1ccc2c(c1)CC(=O)N2Cc1cccc(F)c1 | 729 s
CN(C)c1ccc(-c2nc3ncc(Cl)c(N4CCN(CC(=O)Nc5nccs5)CC4)c3[nH]2)cc1 | 704 s
O=C(Nc1ccc2c(c1)OCCO2)C1CCN(C(=O)c2ccc(-c3noc(C4CC4)n3)cc2)CC1 | 828 s
O=C(NC1CCCC1)c1ccc2c(c1)nc1n2CCN(C2CCCCC2)C1=O | 763 s
O=C(NCc1ccc(F)cc1)N1CCN(c2nc3ccccc3nc2C(F)(F)F)CC1 | 1010 s

Inquiry: Hello, please tell me recorded RP-LC retention time for this one: CCOc1ccccc1NC(=O)N1CCN(c2cnn3c(C)nnc3c2)CC1
Reply text: 658 s

Inquiry: // Input: Cc1ccc(-n2c(=O)c3sccc3n(Cc3nc(-c4ccc(F)cc4)no3)c2=O)cc1 . Output its RP-LC retention time only.
Reply text: 1030 s

Inquiry: Please report the measured RP-LC retention time for CCn1ccc2c(cc(C(=O)Nc3ccc(F)cc3Cl)n2C)c1=O
Reply text: 776 s

====

Assay: gradient 5% acetonitrile 3 min, to 50% in 2 min, to 85% in 15 min, held 3 min, 100 µL/min
Settings: column: Zorbax Extend-C18 2.1 x 50 mm; eluents: water / acetonitrile, 0.1% formic acid
endpoint: RP-LC retention time (s)
Report as a plain number; the unit s is understood.

Consider the reported RP-LC retention time for these compounds:
NC(=O)COC1CCC12CCN(C(=O)c1ccc3c(c1)OCO3)CC2 (stereo not given) | 662
Cc1ccc(N2CCN(C(=O)C(C)(C)C)CC2)nn1 | 531
O=C(Cn1cc(Cl)cn1)N1CCCC1c1cccc(F)c1 (stereo not given) | 836
COc1ccc(-c2nn(CCCC(=O)N3CCN(c4ccccc4)CC3)c(=O)c3noc(C)c23)cc1 | 922
CN(C)c1cccc(C(=O)NCC2CCN(C(=O)Oc3ccccc3)CC2)c1 | 723

Inquiry: Supply recorded RP-LC retention time for Cc1cccc2nnc(N3CCCC(C(=O)NC4CCCC4)C3)n12 (stereo not given) here.
Reply text: 597

Inquiry: Give the measured RP-LC retention time for CCn1ccc2sc(C)c(C(=O)N3CCN(c4ccc(F)cc4)CC3)c2c1=O
Reply text: 808

Inquiry: For Cn1c(C(=O)NC2CCCCCC2)cc2sccc21 , write its RP-LC retention time.
Reply text: 1020

Inquiry: Supply RP-LC retention time value. Item: CNC(=O)CN1c2ccccc2NC2=C(C(=O)CC(C)(C)C2)C1c1ccc(OC)cc1 (stereo not given)
Reply text: 729

Inquiry: Please indicate RP-LC retention time recorded for Cn1cnnc1SCC(=O)N1CCCc2ccccc21
Reply text: 636

====

In this section, each of the compounds is paired with its reported RP-LC retention time.
Experiment: gradient 5% acetonitrile 3 min, to 50% in 2 min, to 85% in 15 min, held 3 min, 100 µL/min
Conditions: column: Zorbax Extend-C18 2.1 x 50 mm; eluents: water / acetonitrile, 0.1% formic acid
Reply with just the number (in s).

Cn1nccc1C(=O)N1CCC(c2nc(-c3ccc(F)cc3)no2)CC1 | 811
O=C(NC1CCN(c2nnc3ccc(Cl)cn23)CC1)c1ccc(C(F)(F)F)s1 | 837
O=C(CN1CCCC1=O)NCc1ccc(F)cc1Cl | 656
CN(C)S(=O)(=O)c1ccc2c(c1)N(CC(=O)NC1CCCC1)C(=O)C1CCCCN21 (stereo not given) | 856

Inquiry: Respond only with RP-LC retention time recorded for CC(C)N1CCCn2cc(S(=O)(=O)NC3CCCCCC3)cc2C1=O
Reply text: 817

Inquiry: Tell me its RP-LC retention time given CCSc1nnc(NC(=O)CSc2nnnn2-c2ccccc2CC)s1 as the entry.
Reply text: 887

====

Assay: gradient 5% acetonitrile 3 min, to 50% in 2 min, to 85% in 15 min, held 3 min, 100 µL/min
Conditions: column: Zorbax Extend-C18 2.1 x 50 mm; eluents: water / acetonitrile, 0.1% formic acid
// boundary case: RP-LC retention time equal to 700 s maps to criterion not met; strictly smaller maps to criterion met

Worked examples, 2 compounds total:
Cc1cc(Oc2ncnc3c2cnn3-c2ccc(Cl)cc2)ccc1[N+](=O)[O-] | criterion not met
Cc1ccc(Cl)cc1N1CCN(C(=O)C2CCN(S(=O)(=O)c3cn(C)cn3)CC2)CC1 | criterion not met

Inquiry: Regarding COc1cc(NC(=O)N2CCCC(CN3CCc4ccccc4C3)C2)cc(OC)c1OC (stereo not given) , kindly confirm whether its RP-LC retention time is beneath 700 s.
Reply text: criterion met

Inquiry: RP-LC retention time under 700 s? Item: CCOC(=O)c1nc(Nc2ccccc2OCC)c2c(CC)noc2n1
Reply text: criterion not met

====

Test: gradient 5% acetonitrile 3 min, to 50% in 2 min, to 85% in 15 min, held 3 min, 100 µL/min
Conditions: column: Zorbax Extend-C18 2.1 x 50 mm; eluents: water / acetonitrile, 0.1% formic acid
Returns one of yes or no; yes when RP-LC retention time is >= 900 s.

Cc1cnc(-c2ccccc2)n1C1CN(Cc2cccc(C#N)c2)C1 | no

Inquiry: Quick check, RP-LC retention time >= 900 s? O=C(c1ccc(Cn2c(=O)c3cccn3c3cccnc32)cc1)N1CCN(c2ccccn2)CC1
Reply text: no

Inquiry: Does O=S(=O)(c1cccc(F)c1)N1CCc2nc(-c3ccc(Cl)cc3)ncc2C1 have a reported RP-LC retention time of at least 900 s?
Reply text: yes

Inquiry: Confirm if RP-LC retention time reported for the compound CN1CCC(OC2CCN(S(=O)(=O)c3ccccc3F)CC2)CC1 is 900 s or above.
Reply text: no

====

Experiment: gradient 5% acetonitrile 3 min, to 50% in 2 min, to 85% in 15 min, held 3 min, 100 µL/min
Details: column: Zorbax Extend-C18 2.1 x 50 mm; eluents: water / acetonitrile, 0.1% formic acid
endpoint: RP-LC retention time (s)
A number alone suffices; assume s.

COc1ccc(OC)c(NC(=O)N2CCCC2c2nc(-c3ccccc3OC)no2)c1 (centres undefined) | 906
COCc1cc(=O)n(CC(=O)Nc2ccc(F)cc2C)c(N)n1 | 593
CC1CN(c2ccc(F)cc2)c2nc3c(c(=O)n(CC(=O)O)c(=O)n3C)n2C1 (centres undefined) | 729
Cc1nc2c(sc3nc(-c4ccccc4)ccc32)c(=O)n1CC(=O)NCc1cccs1 | 750
Cc1ccc(NC(=O)NCC2CCOCC2)cc1 | 704

Inquiry: Write down RP-LC retention time measured for item O=C(Nc1ccc(Cl)cc1)C1CCc2nc(N3CCOCC3)ncc2C1 (centres undefined)
Reply text: 757

Inquiry: Give RP-LC retention time for the following molecule: CCc1nc2cc(-c3noc(-c4cccc(OC)c4OC)n3)ccc2o1
Reply text: 1130

Inquiry: Note down RP-LC retention time recorded for CC(C)CCNC(=O)c1ccc2c(c1)nc(Nc1n[nH]c3ccc(-c4ccccc4OC(F)(F)F)cc13)n2C1CCC(O)CC1 (centres undefined)
Reply text: 957

Inquiry: Input CCN1CCC2(CC1)OC(=O)C(C)=C2C(=O)NCCc1ccc(Cl)cc1 , output reported RP-LC retention time.
Reply text: 653
